Species on record: Homo sapiens
test_details: Selectivity ratio of IC50 for human recombinant TCPTP to IC50 for human recombinant PTP1B
assay_endpoint: Ratio IC50

item_smiles | assay_endpoint | assay_value
COc1ccc(/N=C2\S/C(=C\c3cccc(OCc4ccccc4)c3)C(=O)N2Cc2ccc(C(=O)O)cc2)cc1 | Ratio IC50 | > 2
O=C(O)c1ccc(CN2C(=O)/C(=C/c3ccc(OCc4ccccc4)cc3)S/C2=N\c2ccc(C(F)(F)F)cc2)cc1 | Ratio IC50 | > 2
COc1ccc(/N=C2\S/C(=C\c3cccc(Oc4ccccc4)c3)C(=O)N2Cc2ccc(C(=O)O)cc2)cc1 | Ratio IC50 | > 2
COc1ccc(/N=C2\S/C(=C\c3ccc(OCc4ccccc4)cc3)C(=O)N2Cc2ccc(C(=O)O)cc2)cc1 | Ratio IC50 | > 2
O=C(O)c1ccc(CN2C(=O)/C(=C/c3cccc(OCc4ccccc4)c3)S/C2=N\c2ccc(C(F)(F)F)cc2)cc1 | Ratio IC50 | > 2
O=C(O)c1ccc(CN2C(=O)/C(=C/c3cccc(Oc4ccccc4)c3)S/C2=N\c2ccc(C(F)(F)F)cc2)cc1 | Ratio IC50 | 2
COc1ccc(/N=C2\S/C(=C\c3ccc4ccccc4c3)C(=O)N2Cc2ccc(C(=O)O)cc2)cc1 | Ratio IC50 | > 2
COc1ccc(/N=C2\S/C(=C\c3ccc(Oc4ccccc4)cc3)C(=O)N2Cc2ccc(C(=O)O)cc2)cc1 | Ratio IC50 | > 2
O=C(O)c1ccc(CN2C(=O)/C(=C/c3ccc(Oc4ccccc4)cc3)S/C2=N\c2ccc(C(F)(F)F)cc2)cc1 | Ratio IC50 | 7.1
O=C(O)c1ccc(CN2C(=O)/C(=C/c3ccc4ccccc4c3)S/C2=N\c2ccc(C(F)(F)F)cc2)cc1 | Ratio IC50 | > 2

====

experimental_system: Tyrosine-protein phosphatase non-receptor type 1 (Mus musculus)
test_details: Inhibition of PTP1B in mouse C2C12 cells assessed as increase in insulin receptor beta tyrosine phosphorylation at 25 uM
Type: cell-based
Activity calls are given as the source filed them. The rule behind the calls is not given here.
Classes used: 1 for active, 0 for inactive

item_smiles | assigned_label
O=C(O)c1ccc(CN2C(=O)/C(=C/c3ccc4ccccc4c3)S/C2=N\c2ccc(C(F)(F)F)cc2)cc1 | 1
COc1ccc(/N=C2\S/C(=C\c3cccc(Oc4ccccc4)c3)C(=O)N2Cc2ccc(C(=O)O)cc2)cc1 | 1
O=C(O)c1ccc(CN2C(=O)/C(=C/c3cccc(OCc4ccccc4)c3)S/C2=N\c2ccc(C(F)(F)F)cc2)cc1 | 1
COc1ccc(/N=C2\S/C(=C\c3ccc(Oc4ccccc4)cc3)C(=O)N2Cc2ccc(C(=O)O)cc2)cc1 | 1
O=C(O)c1ccc(CN2C(=O)/C(=C/c3ccc(OCc4ccccc4)cc3)S/C2=N\c2ccc(C(F)(F)F)cc2)cc1 | 1
COc1ccc(/N=C2\S/C(=C\c3ccc(OCc4ccccc4)cc3)C(=O)N2Cc2ccc(C(=O)O)cc2)cc1 | 0
COc1ccc(/N=C2\S/C(=C\c3cccc(OCc4ccccc4)c3)C(=O)N2Cc2ccc(C(=O)O)cc2)cc1 | 1

====

experimental_system: Low molecular weight phosphotyrosine protein phosphatase (Homo sapiens)
Sequence (P24666 whole entry): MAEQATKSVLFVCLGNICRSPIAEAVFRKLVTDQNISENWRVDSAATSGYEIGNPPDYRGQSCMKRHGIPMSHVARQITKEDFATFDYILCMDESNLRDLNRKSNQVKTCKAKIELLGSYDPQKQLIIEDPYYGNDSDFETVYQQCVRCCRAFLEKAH
test_details: Competitive inhibition of GST-tagged human recombinant LMW-PTP IF2 expressed in Escherichia coli TB1 using p-nitrophenylphosphate as substrate by Line-Weaver Burk plot
pIC50: −log10 of the molar value.
assay_endpoint: pIC50

item_smiles | relation_symbol | assay_value
COc1ccc(/N=C2\S/C(=C\c3ccc4ccccc4c3)C(=O)N2Cc2ccc(C(=O)O)cc2)cc1 | = | 4.93
O=C(O)c1ccc(CN2C(=O)/C(=C/c3ccc(OCc4ccccc4)cc3)S/C2=N\c2ccc(C(F)(F)F)cc2)cc1 | = | 4.60
O=C(O)c1ccc(CN2C(=O)/C(=C/c3ccc(Oc4ccccc4)cc3)S/C2=N\c2ccc(C(F)(F)F)cc2)cc1 | = | 4.48
COc1ccc(/N=C2\S/C(=C\c3cccc(OCc4ccccc4)c3)C(=O)N2Cc2ccc(C(=O)O)cc2)cc1 | = | 4.76
COc1ccc(/N=C2\S/C(=C\c3cccc(Oc4ccccc4)c3)C(=O)N2Cc2ccc(C(=O)O)cc2)cc1 | = | 4.66
O=C(O)c1ccc(CN2C(=O)/C(=C/c3ccc4ccccc4c3)S/C2=N\c2ccc(C(F)(F)F)cc2)cc1 | = | 4.82
O=C(O)c1ccc(CN2C(=O)/C(=C/c3cccc(OCc4ccccc4)c3)S/C2=N\c2ccc(C(F)(F)F)cc2)cc1 | < | 3.82
COc1ccc(/N=C2\S/C(=C\c3ccc(Oc4ccccc4)cc3)C(=O)N2Cc2ccc(C(=O)O)cc2)cc1 | = | 4.74
O=C(O)c1ccc(CN2C(=O)/C(=C/c3cccc(Oc4ccccc4)c3)S/C2=N\c2ccc(C(F)(F)F)cc2)cc1 | < | 3.82
COc1ccc(/N=C2\S/C(=C\c3ccc(OCc4ccccc4)cc3)C(=O)N2Cc2ccc(C(=O)O)cc2)cc1 | = | 5.04

====

experimental_system: Tyrosine-protein phosphatase non-receptor type 1 (Mus musculus)
Sequence (whole entry): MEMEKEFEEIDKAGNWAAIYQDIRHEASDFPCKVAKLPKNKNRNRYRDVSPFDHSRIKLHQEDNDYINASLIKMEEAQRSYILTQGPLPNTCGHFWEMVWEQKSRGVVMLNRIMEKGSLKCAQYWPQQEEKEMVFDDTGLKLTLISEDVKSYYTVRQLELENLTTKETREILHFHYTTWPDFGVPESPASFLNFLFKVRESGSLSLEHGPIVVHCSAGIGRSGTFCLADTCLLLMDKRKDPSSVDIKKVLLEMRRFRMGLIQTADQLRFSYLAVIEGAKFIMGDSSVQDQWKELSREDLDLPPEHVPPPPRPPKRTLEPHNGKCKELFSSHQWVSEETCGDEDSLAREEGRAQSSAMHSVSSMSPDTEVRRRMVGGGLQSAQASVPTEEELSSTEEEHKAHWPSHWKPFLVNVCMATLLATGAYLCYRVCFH
test_details: Inhibition of PTP1B in mouse C2C12 cells assessed as increase in intracellular 2-deoxyglucose uptake using [3H]glucose as substrate at 25 uM after 90 mins by scintillation counting
Type: cell-based
Calls of active or inactive are those of the source. The calls are words filed in the database; no cut-off is given here.
Classes used: label 1 for active, label 0 for inactive

item_smiles | assigned_label
O=C(O)c1ccc(CN2C(=O)/C(=C/c3ccc(OCc4ccccc4)cc3)S/C2=N\c2ccc(C(F)(F)F)cc2)cc1 | label 1
COc1ccc(/N=C2\S/C(=C\c3ccc(OCc4ccccc4)cc3)C(=O)N2Cc2ccc(C(=O)O)cc2)cc1 | label 0
O=C(O)c1ccc(CN2C(=O)/C(=C/c3ccc4ccccc4c3)S/C2=N\c2ccc(C(F)(F)F)cc2)cc1 | label 1
O=C(O)c1ccc(CN2C(=O)/C(=C/c3cccc(OCc4ccccc4)c3)S/C2=N\c2ccc(C(F)(F)F)cc2)cc1 | label 1

====

experimental_system: Tyrosine-protein phosphatase non-receptor type 2 (Homo sapiens, UniProt P17706)
Sequence (P17706 whole entry): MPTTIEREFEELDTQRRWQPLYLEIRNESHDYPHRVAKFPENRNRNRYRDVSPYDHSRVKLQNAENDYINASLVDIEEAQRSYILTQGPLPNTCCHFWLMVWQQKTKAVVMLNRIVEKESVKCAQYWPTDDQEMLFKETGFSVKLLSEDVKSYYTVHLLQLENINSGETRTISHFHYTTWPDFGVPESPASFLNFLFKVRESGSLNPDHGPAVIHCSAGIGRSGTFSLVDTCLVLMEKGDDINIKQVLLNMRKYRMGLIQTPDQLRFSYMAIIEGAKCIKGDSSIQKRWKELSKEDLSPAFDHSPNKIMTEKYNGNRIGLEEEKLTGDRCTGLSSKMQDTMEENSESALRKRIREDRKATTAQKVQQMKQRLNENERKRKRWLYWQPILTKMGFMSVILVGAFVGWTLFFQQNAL
test_details: Competitive inhibition of human recombinant TCPTP using p-nitrophenylphosphate as substrate by Line-Weaver Burk plot
Listing of entries alongside the reported IC50.

item_smiles | units_text | relation_symbol | IC50
O=C(O)c1ccc(CN2C(=O)/C(=C/c3cccc(OCc4ccccc4)c3)S/C2=N\c2ccc(C(F)(F)F)cc2)cc1 | µM | > | 100
COc1ccc(/N=C2\S/C(=C\c3cccc(Oc4ccccc4)c3)C(=O)N2Cc2ccc(C(=O)O)cc2)cc1 | µM | = | 20.5
COc1ccc(/N=C2\S/C(=C\c3cccc(OCc4ccccc4)c3)C(=O)N2Cc2ccc(C(=O)O)cc2)cc1 | µM | = | 11.6
O=C(O)c1ccc(CN2C(=O)/C(=C/c3ccc(Oc4ccccc4)cc3)S/C2=N\c2ccc(C(F)(F)F)cc2)cc1 | µM | = | 15.6
COc1ccc(/N=C2\S/C(=C\c3ccc(OCc4ccccc4)cc3)C(=O)N2Cc2ccc(C(=O)O)cc2)cc1 | µM | = | 9.5
COc1ccc(/N=C2\S/C(=C\c3ccc4ccccc4c3)C(=O)N2Cc2ccc(C(=O)O)cc2)cc1 | µM | = | 27
O=C(O)c1ccc(CN2C(=O)/C(=C/c3ccc(OCc4ccccc4)cc3)S/C2=N\c2ccc(C(F)(F)F)cc2)cc1 | µM | = | 2.2
O=C(O)c1ccc(CN2C(=O)/C(=C/c3ccc4ccccc4c3)S/C2=N\c2ccc(C(F)(F)F)cc2)cc1 | µM | = | 20.2
O=C(O)c1ccc(CN2C(=O)/C(=C/c3cccc(Oc4ccccc4)c3)S/C2=N\c2ccc(C(F)(F)F)cc2)cc1 | µM | = | 20.6
COc1ccc(/N=C2\S/C(=C\c3ccc(Oc4ccccc4)cc3)C(=O)N2Cc2ccc(C(=O)O)cc2)cc1 | µM | = | 7.1

====

experimental_system: Tyrosine-protein phosphatase non-receptor type 1 (Homo sapiens, UniProt P18031)
Sequence (P18031 whole entry): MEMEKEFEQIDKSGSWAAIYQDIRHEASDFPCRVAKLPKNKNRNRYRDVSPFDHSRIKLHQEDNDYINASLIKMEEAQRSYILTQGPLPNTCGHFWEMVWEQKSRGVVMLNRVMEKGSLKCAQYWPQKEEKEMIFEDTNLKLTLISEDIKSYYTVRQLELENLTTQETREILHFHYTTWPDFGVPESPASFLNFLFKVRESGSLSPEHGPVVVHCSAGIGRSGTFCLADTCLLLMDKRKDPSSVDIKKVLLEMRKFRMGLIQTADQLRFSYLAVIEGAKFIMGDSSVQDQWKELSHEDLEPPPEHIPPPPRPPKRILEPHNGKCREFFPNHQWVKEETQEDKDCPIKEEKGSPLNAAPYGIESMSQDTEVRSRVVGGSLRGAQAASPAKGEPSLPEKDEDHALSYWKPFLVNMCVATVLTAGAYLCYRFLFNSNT
test_details: Competitive inhibition of GST-tagged human recombinant PTP1B expressed in Escherichia coli TB1 using p-nitrophenylphosphate as substrate by Line-Weaver Burk plot
pIC50: −log10 of the molar value.
assay_endpoint: pIC50

item_smiles | assay_value
COc1ccc(/N=C2\S/C(=C\c3ccc(Oc4ccccc4)cc3)C(=O)N2Cc2ccc(C(=O)O)cc2)cc1 | 5.60
COc1ccc(/N=C2\S/C(=C\c3cccc(Oc4ccccc4)c3)C(=O)N2Cc2ccc(C(=O)O)cc2)cc1 | 4.96
O=C(O)c1ccc(CN2C(=O)/C(=C/c3cccc(Oc4ccccc4)c3)S/C2=N\c2ccc(C(F)(F)F)cc2)cc1 | 4.98
COc1ccc(/N=C2\S/C(=C\c3ccc(OCc4ccccc4)cc3)C(=O)N2Cc2ccc(C(=O)O)cc2)cc1 | 5.52
O=C(O)c1ccc(CN2C(=O)/C(=C/c3ccc(Oc4ccccc4)cc3)S/C2=N\c2ccc(C(F)(F)F)cc2)cc1 | 5.66
O=C(O)c1ccc(CN2C(=O)/C(=C/c3cccc(OCc4ccccc4)c3)S/C2=N\c2ccc(C(F)(F)F)cc2)cc1 | 5.25
O=C(O)c1ccc(CN2C(=O)/C(=C/c3ccc4ccccc4c3)S/C2=N\c2ccc(C(F)(F)F)cc2)cc1 | 5.62
COc1ccc(/N=C2\S/C(=C\c3cccc(OCc4ccccc4)c3)C(=O)N2Cc2ccc(C(=O)O)cc2)cc1 | 5.29
COc1ccc(/N=C2\S/C(=C\c3ccc4ccccc4c3)C(=O)N2Cc2ccc(C(=O)O)cc2)cc1 | 5.05
O=C(O)c1ccc(CN2C(=O)/C(=C/c3ccc(OCc4ccccc4)cc3)S/C2=N\c2ccc(C(F)(F)F)cc2)cc1 | 5.85
